Reported DC50 values follow for various molecules
- target: CDK2 protein (Homo sapiens, UniProt P24941)
- Construct: host or cells: OVCAR3
- assay_text: CDK2 protein degradation in OVCAR3 cells (Western blot)
- Format: cell-based
- settings: 24 h, read-out: DC50 CDK2 (half-maximum degradation concentration)

| molecule | target | DC50 |
| --- | --- | --- |
| Cc1nc2c(F)cc(-c3nc(Nc4ccc(S(=O)(=O)C5CCN(C6CCN(C7CN(c8cc9c(cc8F)C(=O)N(C8CCC(=O)NC8=O)C9=O)C7)CC6)CC5)cc4)ncc3F)cc2n1C(C)C (centres unmarked) | CDK2 protein (Homo sapiens, UniProt P24941) | > 0.2 µM |
| C[C@@]1(O)CCC[C@H]1n1c(=O)ccc2cnc(NC3CCN(S(=O)(=O)C4CCN(C5CC6(CCN(c7cc8c(cc7F)C(=O)N(C7CCC(=O)NC7=O)C8=O)CC6)C5)CC4)CC3)nc21 (some centres unmarked) | CDK2 protein (Homo sapiens, UniProt P24941) | < 0.01 µM |

Input: Look up DC50 with CDK2 protein (Homo sapiens, UniProt P24941) for this molecule: C[C@@]1(O)CCC[C@H]1n1c(=O)ccc2cnc(NC3CCN(S(=O)(=O)C4CCN(CC5CCN(C6CN(c7cc8c(cc7F)C(=O)N(C7CCC(=O)NC7=O)C8=O)C6)CC5)CC4)CC3)nc21 (some centres unmarked)
Output: 0.051 to 0.1 µM

Input: Under CDK2 protein (Homo sapiens, UniProt P24941): DC50 value of Cc1nc2c(F)cc(-c3nc(NC4CCN(S(=O)(=O)C5CCN(C6CN(C7CCN(c8cc9c(cc8F)C(=O)N(C8CCC(=O)NC8=O)C9=O)CC7)C6)CC5)CC4)ncc3F)cc2n1C(C)C (centres unmarked) ?
Output: < 0.01 µM

Input: Given the entry Cc1nc2c(F)cc(-c3nc(NC4CCN(S(=O)(=O)C5CCN(CC6CCN(C7CN(c8cc9c(cc8F)C(=O)N(C8CCC(=O)NC8=O)C9=O)C7)CC6)CC5)CC4)ncc3F)cc2n1C(C)C (centres unmarked) , what DC50 was observed with CDK2 protein (Homo sapiens, UniProt P24941)?
Output: > 0.2 µM
